System: SR leukemia
test: NCI tumour cell line growth inhibition, 48 h
observable: TGI

* O=C(O)[C@@]1(Cc2ccc(O)cc2)C[C@@H]2Cc3ccccc3N2N1 | > 100 µM
* Cc1cc2c(=O)cc(-c3ccc(O)cc3)oc2c(C(=O)O)c1C | > 100 µM

Exercise: Need TGI of "COc1ccccc1NC(=S)NNC(=O)c1cc(-c2ccccc2)nc2ccccc12" , thanks.
Key: 4.53 µM

Exercise: Input "CC(=O)OCc1cc(OC(C)=O)c2cc3c(OC(C)=O)cccc3c(OC(C)=O)c2c1"
Key: > 100 µM

Exercise: Input CC(C)(C)OC(=O)CCC1NC(=O)[C@@H]2Cc3c([nH]c4ccccc34)C(c3ccccc3)N2C1=O (stereo not given in full)
Key: > 100 µM
